System: U251 CNS
Assay: NCI tumour cell line growth inhibition, 48 h
measuredProperty: TGI

Task: Look up TGI for this compound: `COc1cc(/C=C2\[C@@H]3NC(Cc4c(OC)c(C)c(OC)c(OC)c43)C(=O)N2Cc2ccccc2)c(OC)c(C)c1OC`
Output: > 100 µM

Task: Clc1ccc2c(NC3CCC(N4CCCCC4)CC3)ccnc2c1 (stereo not given) , same question.
Output: 57.1 µM

Task: What about this compound? `Cc1cc(C)[n+]2c(c1)C=CC2`
Output: > 100 µM

Task: Here is the next compound: CSc1ccc(N2C(=O)C3c4[nH]c5ccccc5c4C4CCC(C(C)(C)C)CC4C3C2=O)cc1 (stereo not given)
Output: 31.5 µM

Task: Try this compound too: `Cc1cc2nc3c(C#N)c(C)c(CCCl)c(Cl)n3c2cc1C`
Output: > 60.9 µM

Task: Consider next the compound `NS(=O)(=O)c1ccc(-n2nc3c(c2-c2cccs2)Cc2ccccc2-3)cc1` in the same way.
Output: 25.8 µM

Task: Here is the next compound: `NC(=O)NNC/C(Cl)=C(\Cl)C(=O)O`
Output: > 100 µM

Task: `CC1(C)CC(=O)c2c(N)n[nH]c2C1` , same question.
Output: > 100 µM

Task: Entry `Cc1[nH]nc(C(F)(F)F)c1Cc1sc2c(c1C(=O)N1C[C@](C)(O)CO1)c(=O)n(C)c(=O)n2C(C)C` please
Output: > 100 µM

Task: Now the compound `Cc1cnc2c(c1)C(=O)N(c1ccc(Oc3ccccc3)cc1)S2(=O)=O`
Output: > 100 µM

###

Tested on: T-47D breast
Experiment: NCI tumour cell line growth inhibition, 48 h
Assign TGI to each entry below.

Task: Given the compound `C=C1c2c(n(S(=O)(=O)c3ccccc3)c3ccccc23)[C@@]2(C(=O)OC)CC3C=CC2N1C3` , what is its reported TGI?
Output: > 100 µM

Task: Then what about the compound `CC(C)OC1=C(CC2(C)OCCO2)C(=O)C12OCCO2` ?
Output: > 100 µM

Task: Lookup `COC(=O)N[C@@H]1C[C@H]2CC[C@]1(O[Si](C(C)C)(C(C)C)C(C)C)C(=O)C2`
Output: > 100 µM

Task: Same question, `CCC(=O)NC1=C(Cl)C(=O)C(NC(=O)CC)=C(Cl)C1=O` this time
Output: 14.2 µM

Task: Moving on to the next compound: `Nc1nc(N)c2c(ccc3c2ccn3Cc2cccc([N+](=O)[O-])c2)n1`
Output: 3.05 µM

Task: Repeat for the following compound: `COc1cc2c3c(n(C)c(=O)c2cc1OC)-c1cc2c(cc1/C3=C\CCCCl)OCO2`
Output: > 100 µM

Task: # iterate: `O=c1c(O)c(-c2ccccc2)oc2c(CP(=O)(O)O)cccc12`
Output: > 100 µM

Task: Proceed to `[N-]=[N+]=Nc1cc(=O)[nH]c2ccccc12`
Output: > 100 µM

Task: For `N=c1ncn(C/C=C/c2ccccc2)c2nc[nH]c12` then?
Output: > 100 µM

Task: Another: OC(CCN1CCN(CCOC(c2ccccc2)c2ccccc2)CC1)c1ccccc1 (stereo not given)
Output: 48.8 µM

###

System: UO-31 renal
Assay: NCI tumour cell line growth inhibition, 48 h
Record form. Attribute: GI50. Fill in for each entry.

Task: Fill in the blank: the reported GI50 of `Nc1nc(N)c2c(ccc3c2ccn3Cc2cccc([N+](=O)[O-])c2)n1` is ____.
Output: 0.043 µM

Task: Please do the same for `Cc1nnc(N/N=C/c2ccc([N+](=O)[O-])o2)[nH]c1=O` as well.
Output: 0.931 µM

Task: Now give it for `Cc1cc(I)cc(CN(C)CCCN2CCC(C)CC2)c1O` too.
Output: 11.4 µM

Task: Repeat with CCCCCCCCN(CCCCCCCC)CC(O)c1cc(-c2ccccc2)nc2ccc(OC)cc12 (stereo not drawn)
Output: 34.4 µM

Task: And then `COC(=O)Nc1nc2ccc(C(=O)c3cccc(I)c3)cc2[nH]1` , what is it?
Output: 0.316 µM

Task: // repeat for `COc1ccc(C(=O)/C=C/c2ccc(OCc3cccc(C(F)(F)F)c3)c(OC)c2)cc1OC` and report
Output: 47.3 µM

Task: Follow-up entry: `C=CCc1c(O)c(C(=O)/C=C/c2ccc(Cl)cc2)c(OC)c2ccoc12`
Output: 2.88 µM

Task: Then this molecule: `CCOP(=O)(OCC)/C(=C/n1c(=S)[nH]c2ccccc21)C(=O)OC`
Output: > 100 µM

Task: Also `O=C(Nc1nc2c(C(F)(F)F)cccc2s1)c1cc(Cl)ccc1O` ?
Output: 0.265 µM

Task: Now give it for Cc1ccsc1C(NC(=O)c1ccccc1)c1cc(Cl)c2cccnc2c1O (stereo not drawn) too.
Output: 0.334 µM

Task: Item: O=C1C=CC2C3C(=O)N(c4ccccc4)C(=O)C3C1N2Cc1ccccc1 (stereo not drawn)
Output: 3.42 µM

Task: Check `NS(=O)(=O)c1ccc(-n2nc3c(c2-c2cccs2)Cc2ccccc2-3)cc1` too.
Output: 12.2 µM

Task: // next record `CCOC(=O)C1=C(Nc2ccc(OC)cc2)C(N)=NC1=N`
Output: 6.29 µM
